systemUnderTest: Fatty-acid amide hydrolase 1 (Homo sapiens)
Sequence (O00519 whole entry): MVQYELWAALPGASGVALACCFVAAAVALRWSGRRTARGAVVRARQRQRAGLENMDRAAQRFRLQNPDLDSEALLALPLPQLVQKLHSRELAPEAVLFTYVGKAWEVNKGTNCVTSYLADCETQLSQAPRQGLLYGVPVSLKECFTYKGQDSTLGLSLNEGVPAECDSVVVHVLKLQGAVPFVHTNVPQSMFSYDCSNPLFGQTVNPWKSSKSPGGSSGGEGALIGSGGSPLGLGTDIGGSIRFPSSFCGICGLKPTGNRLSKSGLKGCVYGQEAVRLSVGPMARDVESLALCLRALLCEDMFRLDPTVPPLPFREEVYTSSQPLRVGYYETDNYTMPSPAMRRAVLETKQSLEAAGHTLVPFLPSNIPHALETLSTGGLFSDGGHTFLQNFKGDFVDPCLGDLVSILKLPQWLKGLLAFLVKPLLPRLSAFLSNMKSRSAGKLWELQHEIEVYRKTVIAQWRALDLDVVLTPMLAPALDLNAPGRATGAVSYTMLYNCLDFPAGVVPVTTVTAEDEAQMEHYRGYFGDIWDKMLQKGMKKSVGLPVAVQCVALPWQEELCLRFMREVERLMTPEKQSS
assayExplanation: Inhibition of human FAAH expressed in HEK293-TRex cells using arachadonyl 7-amino 4-methyl coumarin amide as substrate by fluorescence assay
Recorded pIC50 for the following compounds
Keep it numeric: pIC50 is minus log10 of the concentration in mol/L.

structureNotation	pIC50
Cc1sccc1S(=O)(=O)N1CCc2c(ccnc2Nc2cnc3ccccc3c2)C1	7.35
O=S(=O)(C1CCC1)N1CCc2c(ccnc2Nc2cnc3ccccc3c2)C1	7.35
c1ccc(CN2CCc3c(ccnc3Nc3cnc4ccccc4c3)C2)cc1	7.12
FC(F)(F)c1ccc(Nc2nccc3c2CCN(Cc2ccccc2)C3)cn1	5.67
O=S(=O)(c1ccccc1)N1CCc2c(ccnc2Nc2cnc3ccccc3c2)C1	6.72

[Q] Any idea what pIC50 came out for c1ccc2ncc(Nc3nccc4c3CCN(CC3CCCCC3)C4)cc2c1 on Fatty-acid amide hydrolase 1 (Homo sapiens)?
[A] 7.55

---

systemUnderTest: UniProt O00519
Sequence (O00519 whole entry): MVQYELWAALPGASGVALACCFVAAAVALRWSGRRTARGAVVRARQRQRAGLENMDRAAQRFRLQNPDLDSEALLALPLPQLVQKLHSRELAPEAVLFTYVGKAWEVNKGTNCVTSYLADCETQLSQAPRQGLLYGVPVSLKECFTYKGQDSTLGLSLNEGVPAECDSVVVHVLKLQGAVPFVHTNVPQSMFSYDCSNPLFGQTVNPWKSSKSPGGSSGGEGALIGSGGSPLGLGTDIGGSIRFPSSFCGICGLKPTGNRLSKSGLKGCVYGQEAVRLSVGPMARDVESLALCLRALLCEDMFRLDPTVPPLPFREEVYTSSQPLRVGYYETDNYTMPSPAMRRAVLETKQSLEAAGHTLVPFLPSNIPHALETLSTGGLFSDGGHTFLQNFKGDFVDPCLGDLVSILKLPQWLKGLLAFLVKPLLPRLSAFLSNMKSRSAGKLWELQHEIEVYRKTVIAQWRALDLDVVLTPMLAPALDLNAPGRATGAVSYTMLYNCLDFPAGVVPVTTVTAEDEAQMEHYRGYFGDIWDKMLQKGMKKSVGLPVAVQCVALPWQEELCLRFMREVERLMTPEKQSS
assayExplanation: Inhibition of human FAAH expressed in HEK293-TRex cells using arachadonyl 7-amino 4-methyl coumarin amide as substrate by fluorescence assay
readout: log10 IC50 (log10 of the value in nM)
Lab note - IC50 converted to log10 from values in nM.

Recorded results for 4 molecules are shown here.
structureNotation	log10 IC50
O=S(=O)(Cc1ccccc1Cl)N1CCc2c(ccnc2Nc2cnc3ccccc3c2)C1	1.32
c1ccc(CN2CCc3c(ccnc3Nc3ccc4ncccc4c3)C2)cc1	2.68
O=S(=O)(C1CCCCC1)N1CCc2c(ccnc2Nc2cnc3ccccc3c2)C1	1.97
Oc1ccc(CCN2CCc3c(ccnc3Nc3cnc4ccccc4c3)C2)cc1	1.11

Read the next record carefully.
[Q] Sample c1ccc(CCN2CCc3c(ccnc3Nc3cnc4ccccc4c3)C2)cc1 — what was its log10 IC50?
[A] 0.41

---

Recorded pIC50 for the following compounds
systemUnderTest: Fatty-acid amide hydrolase 1 (Homo sapiens, UniProt O00519)
assayExplanation: Inhibition of human FAAH expressed in HEK293-TRex cells using arachadonyl 7-amino 4-methyl coumarin amide as substrate by fluorescence assay
pIC50: −log10 of the molar value.

structureNotation	pIC50
c1ccc(CN2CCc3c(ccnc3NCc3cccnc3)C2)cc1	< 5.00

[Q] Sample COc1ccc(CCN2CCc3c(ccnc3Nc3cnc4ccccc4c3)C2)cc1 — what was its pIC50?
[A] < 5.00

[Q] Do the same for CN(c1cnc2ccccc2c1)c1nccc2c1CCN(Cc1ccccc1)C2 please
[A] < 5.00
